- tested.system: Acetylcholinesterase (Electrophorus electricus, UniProt O42275)
- Sequence (O42275 whole entry): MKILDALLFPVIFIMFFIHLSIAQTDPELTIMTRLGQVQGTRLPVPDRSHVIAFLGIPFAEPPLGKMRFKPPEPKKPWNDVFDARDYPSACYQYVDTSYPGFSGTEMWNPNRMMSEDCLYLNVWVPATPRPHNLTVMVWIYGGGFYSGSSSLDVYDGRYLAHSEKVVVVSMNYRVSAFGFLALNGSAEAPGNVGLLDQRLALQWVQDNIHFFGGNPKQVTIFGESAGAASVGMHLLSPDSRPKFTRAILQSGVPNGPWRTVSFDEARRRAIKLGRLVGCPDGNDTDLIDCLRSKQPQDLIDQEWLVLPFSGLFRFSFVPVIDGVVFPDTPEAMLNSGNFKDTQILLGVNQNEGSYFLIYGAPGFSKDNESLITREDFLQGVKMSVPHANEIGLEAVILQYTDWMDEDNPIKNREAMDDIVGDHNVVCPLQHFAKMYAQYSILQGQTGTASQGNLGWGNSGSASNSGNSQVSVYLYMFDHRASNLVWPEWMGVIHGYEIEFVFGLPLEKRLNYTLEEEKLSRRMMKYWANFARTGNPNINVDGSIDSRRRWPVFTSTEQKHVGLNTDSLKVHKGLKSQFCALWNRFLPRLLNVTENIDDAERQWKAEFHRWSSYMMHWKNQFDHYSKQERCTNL
- method.summary: Competitive inhibition of Electrophorus electricus acetylcholinesterase in presence of varying acetylthiocholine iodide substrate level preincubated for 20 mins followed by substrate addition measured every 1 min for 30 mins
The following molecules are shown together with reported Ki values.
quantity.measured: Ki (µM)

* N=C(NC(=N)N1CCN(C(=N)NC(=N)Nc2cccc(F)c2)CC1)Nc1cccc(F)c1 | 14.9
* COc1cc(NC(=N)NC(=N)N2CCN(C(=N)NC(=N)Nc3cc(OC)c(OC)c(OC)c3)CC2)cc(OC)c1OC | 7.74
* N=C(NC(=N)N1CCN(C(=N)NC(=N)Nc2ccccc2F)CC1)Nc1ccccc1F | 14.9
* N=C(NC(=N)N1CCN(C(=N)NC(=N)Nc2ccc(Cl)cc2)CC1)Nc1ccc(Cl)cc1 [PICLOXYDINE] | 22
* Cc1ccc(NC(=N)NC(=N)N2CCN(C(=N)NC(=N)Nc3ccc(C)cc3)CC2)cc1 | 9.25
* N=C(NC(=N)N1CCN(C(=N)NC(=N)Nc2ccc(OC(F)(F)F)cc2)CC1)Nc1ccc(OC(F)(F)F)cc1 | 19.8
* COc1ccccc1NC(=N)NC(=N)N1CCN(C(=N)NC(=N)Nc2ccccc2OC)CC1 | 4.34
* N=C(NC(=N)N1CCN(C(=N)NC(=N)Nc2cccc(Br)c2)CC1)Nc1cccc(Br)c1 | 6.17
* N=C(NC(=N)N1CCN(C(=N)NC(=N)Nc2cccc(I)c2)CC1)Nc1cccc(I)c1 | 2.79
* N=C(NC(=N)N1CCN(C(=N)NC(=N)Nc2ccc(I)cc2)CC1)Nc1ccc(I)cc1 | 5.08
* N=C(NC(=N)N1CCN(C(=N)NC(=N)Nc2ccccc2)CC1)Nc1ccccc1 | 13.5
* N=C(NC(=N)N1CCN(C(=N)NC(=N)Nc2ccc(Cl)cc2Cl)CC1)Nc1ccc(Cl)cc1Cl | 9.34
* N=C(NC(=N)N1CCN(C(=N)NC(=N)Nc2ccccc2I)CC1)Nc1ccccc1I | 1.56
* COc1cccc(NC(=N)NC(=N)N2CCN(C(=N)NC(=N)Nc3cccc(OC)c3)CC2)c1 | 10.4
* N=C(NC(=N)N1CCN(C(=N)NC(=N)Nc2cccc(Cl)c2)CC1)Nc1cccc(Cl)c1 | 4.45
* N=C(NC(=N)N1CCN(C(=N)NC(=N)Nc2ccccc2Cl)CC1)Nc1ccccc1Cl | 6.11
* N=C(NC(=N)N1CCN(C(=N)NC(=N)Nc2ccccc2Br)CC1)Nc1ccccc1Br | 4.19
* N=C(NC(=N)N1CCN(C(=N)NC(=N)Nc2ccc([N+](=O)[O-])cc2)CC1)Nc1ccc([N+](=O)[O-])cc1 | 0.52

###

Entries annotated with measured Ki
- tested.system: Cholinesterase (Equus caballus, UniProt P81908)
- Sequence (P81908 whole entry): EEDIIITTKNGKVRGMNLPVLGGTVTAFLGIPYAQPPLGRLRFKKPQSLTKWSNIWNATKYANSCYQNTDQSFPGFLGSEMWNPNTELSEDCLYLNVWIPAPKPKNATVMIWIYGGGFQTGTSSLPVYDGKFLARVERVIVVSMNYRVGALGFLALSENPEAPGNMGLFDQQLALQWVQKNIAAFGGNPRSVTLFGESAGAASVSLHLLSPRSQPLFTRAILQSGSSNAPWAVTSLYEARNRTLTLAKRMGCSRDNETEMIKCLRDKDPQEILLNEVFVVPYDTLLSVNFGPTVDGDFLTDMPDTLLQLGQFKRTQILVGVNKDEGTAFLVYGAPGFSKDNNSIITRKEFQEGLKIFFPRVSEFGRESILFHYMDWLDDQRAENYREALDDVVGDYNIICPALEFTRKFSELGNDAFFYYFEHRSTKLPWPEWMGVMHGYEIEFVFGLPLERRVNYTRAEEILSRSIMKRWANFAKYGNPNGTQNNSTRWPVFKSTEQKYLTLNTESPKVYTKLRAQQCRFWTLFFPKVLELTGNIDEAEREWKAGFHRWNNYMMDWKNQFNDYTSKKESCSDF
- method.summary: Competitive inhibition of equine serum butyrylcholinesterase in presence of varying butyrylthiocholine iodide substrate level preincubated for 20 mins followed by substrate addition measured every 1 min for 30 mins
quantity.measured: Ki (nM)

• N=C(NC(=N)N1CCN(C(=N)NC(=N)Nc2ccc(F)cc2)CC1)Nc1ccc(F)cc1 = 1180
• N=C(NC(=N)N1CCN(C(=N)NC(=N)Nc2ccc([N+](=O)[O-])cc2)CC1)Nc1ccc([N+](=O)[O-])cc1 = 10800
• COc1ccc(NC(=N)NC(=N)N2CCN(C(=N)NC(=N)Nc3ccc(OC)cc3)CC2)cc1 = 1780
• N=C(NC(=N)N1CCN(C(=N)NC(=N)Nc2cccc(Br)c2)CC1)Nc1cccc(Br)c1 = 230
• N=C(NC(=N)N1CCN(C(=N)NC(=N)Nc2ccccc2Cl)CC1)Nc1ccccc1Cl = 1850
• N=C(NC(=N)N1CCN(C(=N)NC(=N)Nc2ccccc2I)CC1)Nc1ccccc1I = 1960
• Cc1ccc(NC(=N)NC(=N)N2CCN(C(=N)NC(=N)Nc3ccc(C)cc3)CC2)cc1 = 450
• N=C(NC(=N)N1CCN(C(=N)NC(=N)Nc2cccc(F)c2)CC1)Nc1cccc(F)c1 = 1700
• N=C(NC(=N)N1CCN(C(=N)NC(=N)Nc2ccccc2Br)CC1)Nc1ccccc1Br = 1250
• COc1cccc(NC(=N)NC(=N)N2CCN(C(=N)NC(=N)Nc3cccc(OC)c3)CC2)c1 = 3020
• N=C(NC(=N)N1CCN(C(=N)NC(=N)Nc2cccc(I)c2)CC1)Nc1cccc(I)c1 = 210
• COc1ccccc1NC(=N)NC(=N)N1CCN(C(=N)NC(=N)Nc2ccccc2OC)CC1 = 5200
• N=C(NC(=N)N1CCN(C(=N)NC(=N)Nc2ccc(Cl)cc2)CC1)Nc1ccc(Cl)cc1 [PICLOXYDINE] = 620
• N=C(NC(=N)N1CCN(C(=N)NC(=N)Nc2ccccc2F)CC1)Nc1ccccc1F = 6820
• COc1cc(NC(=N)NC(=N)N2CCN(C(=N)NC(=N)Nc3cc(OC)c(OC)c(OC)c3)CC2)cc(OC)c1OC = 9030
• N=C(NC(=N)N1CCN(C(=N)NC(=N)Nc2ccc(Cl)cc2Cl)CC1)Nc1ccc(Cl)cc1Cl = 410
• CC(C)(C)c1ccc(NC(=N)NC(=N)N2CCN(C(=N)NC(=N)Nc3ccc(C(C)(C)C)cc3)CC2)cc1 = 120

###

- tested.system: Acetylcholinesterase (Electrophorus electricus, UniProt O42275)
- method.summary: Competitive inhibition of Electrophorus electricus acetylcholinesterase in presence of varying acetylthiocholine iodide substrate level preincubated for 20 mins followed by substrate addition measured every 1 min for 30 mins
quantity.measured: Ki

- COc1ccc(NC(=N)NC(=N)N2CCN(C(=N)NC(=N)Nc3ccc(OC)cc3)CC2)cc1: 25.6 µM
- N=C(NC(=N)N1CCN(C(=N)NC(=N)Nc2ccc(Br)cc2)CC1)Nc1ccc(Br)cc1: 3.43 µM
- N=C(NC(=N)N1CCN(C(=N)NC(=N)Nc2ccc(F)cc2)CC1)Nc1ccc(F)cc1: 7.77 µM
- CC(C)(C)c1ccc(NC(=N)NC(=N)N2CCN(C(=N)NC(=N)Nc3ccc(C(C)(C)C)cc3)CC2)cc1: 1.41 µM

###

- tested.system: Acetylcholinesterase (Electrophorus electricus, UniProt O42275)
- method.summary: Non-competitive inhibition of Electrophorus electricus acetylcholinesterase in presence of varying acetylthiocholine iodide substrate level preincubated for 20 mins followed by substrate addition measured every 1 min for 30 mins
pKi: −log10 of the molar value.
quantity.measured: pKi

- Cc1ccc(NC(=N)NC(=N)N2CCN(C(=N)NC(=N)Nc3ccc(C)cc3)CC2)cc1: < 4.00
- N=C(NC(=N)N1CCN(C(=N)NC(=N)Nc2ccccc2I)CC1)Nc1ccccc1I: < 4.00
- N=C(NC(=N)N1CCN(C(=N)NC(=N)Nc2cccc(Cl)c2)CC1)Nc1cccc(Cl)c1: < 4.52
